Reported pIC50 values, Angiopoietin-1 receptor (Homo sapiens, UniProt Q02763).
pIC50: −log10 of the molar value.

{"COMPOUND STRUCTURE": "FC(F)(F)c1ccc(-c2cn(Cc3ccc(-c4cccnc4)cc3)nn2)cc1", "TARGET OR TEST SYSTEM": "Angiopoietin-1 receptor (Homo sapiens, UniProt Q02763)", "pIC50": "< 6.00"}
{"COMPOUND STRUCTURE": "COc1ccc(-c2ccc(Cn3cc(-c4ccccc4)nn3)cc2)cn1", "TARGET OR TEST SYSTEM": "Angiopoietin-1 receptor (Homo sapiens, UniProt Q02763)", "pIC50": "< 6.00"}

----------
Tested on: A-431
Test: Antiproliferative activity against human A431 cells
# IC50 annotations

{"COMPOUND STRUCTURE": "CNC(=O)c1cc(Oc2ccc(NC(=O)Nc3ccc(Cl)c(C(F)(F)F)c3)cc2)ccn1", "IC50": "120 nM"}
{"COMPOUND STRUCTURE": "COc1ccc(-c2ccc(Cn3cc(-c4cccc(N)c4)nn3)cc2)cn1", "IC50": "70 nM"}

----------
System: SMMC-7721
Experiment: Antiproliferative activity against human SMMC7721 cells
pIC50: −log10 of the molar value.

{"COMPOUND STRUCTURE": "CNC(=O)c1cc(Oc2ccc(NC(=O)Nc3ccc(Cl)c(C(F)(F)F)c3)cc2)ccn1", "pIC50": 6.52}
{"COMPOUND STRUCTURE": "COc1ccc(-c2ccc(Cn3cc(-c4cccc(N)c4)nn3)cc2)cn1", "pIC50": 6.62}

----------
System: MCF7
Assay: Antiproliferative activity against human MCF7 cells
pIC50: −log10 of the molar value.
Listed below: pIC50 values for each entry.
READOUT NAME: pIC50

{"COMPOUND STRUCTURE": "CNC(=O)c1cc(Oc2ccc(NC(=O)Nc3ccc(Cl)c(C(F)(F)F)c3)cc2)ccn1", "TARGET OR TEST SYSTEM": "MCF7", "ASSAY VALUE": 7.05}
{"COMPOUND STRUCTURE": "COc1ccc(-c2ccc(Cn3cc(-c4cccc(N)c4)nn3)cc2)cn1", "TARGET OR TEST SYSTEM": "MCF7", "ASSAY VALUE": 6.46}
